system-under-test: Histone deacetylase 3 (Homo sapiens, UniProt O15379)
Sequence (O15379 whole entry): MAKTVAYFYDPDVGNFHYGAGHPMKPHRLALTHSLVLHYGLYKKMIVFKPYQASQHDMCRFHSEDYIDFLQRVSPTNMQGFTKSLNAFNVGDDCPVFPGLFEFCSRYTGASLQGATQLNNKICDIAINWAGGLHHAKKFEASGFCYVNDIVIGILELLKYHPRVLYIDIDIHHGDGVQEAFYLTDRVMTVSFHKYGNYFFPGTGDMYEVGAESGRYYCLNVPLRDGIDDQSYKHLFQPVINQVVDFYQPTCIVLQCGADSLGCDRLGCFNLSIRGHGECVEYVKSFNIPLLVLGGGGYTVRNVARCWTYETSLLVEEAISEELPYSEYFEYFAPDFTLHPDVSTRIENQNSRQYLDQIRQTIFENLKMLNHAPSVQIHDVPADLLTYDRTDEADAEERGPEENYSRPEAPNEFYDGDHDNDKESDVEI
assay-explanation: Inhibition of human recombinant FLAG-tagged HDAC3 expressed in HEK293F cells incubated for 30 mins by Fluor De Lys assay

chemical-string	system-under-test	IC50
CCC(=O)CCCCC[C@H](NC(=O)[C@H]1CC12CCN(CC)CC2)c1ncc(-c2cc3cccnc3cc2OC)o1	Histone deacetylase 3 (Homo sapiens, UniProt O15379)	< 1.5 nM

----------
system-under-test: Histone deacetylase 2 (Homo sapiens, UniProt Q92769)
Sequence (Q92769 whole entry): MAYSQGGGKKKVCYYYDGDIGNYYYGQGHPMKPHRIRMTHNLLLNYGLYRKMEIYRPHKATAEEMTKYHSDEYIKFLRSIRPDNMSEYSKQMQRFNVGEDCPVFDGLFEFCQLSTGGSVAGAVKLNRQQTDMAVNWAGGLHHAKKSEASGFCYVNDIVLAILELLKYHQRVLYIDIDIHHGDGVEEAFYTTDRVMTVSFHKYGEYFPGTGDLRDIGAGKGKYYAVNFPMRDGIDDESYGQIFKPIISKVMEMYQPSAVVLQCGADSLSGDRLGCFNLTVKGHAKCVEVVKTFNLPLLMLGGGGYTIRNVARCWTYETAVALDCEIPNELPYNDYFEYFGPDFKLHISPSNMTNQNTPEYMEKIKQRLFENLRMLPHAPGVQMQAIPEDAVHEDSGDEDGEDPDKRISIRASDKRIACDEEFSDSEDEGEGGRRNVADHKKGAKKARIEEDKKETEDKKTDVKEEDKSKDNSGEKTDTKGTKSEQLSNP
assay-explanation: Inhibition of human recombinant FLAG-tagged HDAC2 expressed in Sf9 cells incubated for 30 mins by Fluor De Lys assay

chemical-string	system-under-test	IC50, nM
CCC(=O)CCCCC[C@H](NC(=O)[C@H]1CC12CCN(C)CC2)c1ncc(-c2cc3ccc(N4CCCC4)nc3cc2OC)[nH]1	Histone deacetylase 2 (Homo sapiens, UniProt Q92769)	2
